Assignment: determine reported Ki for the given compounds.
Target: Porcine Intestinal Sucrase (Sus scrofa, UniProt P56729)
Construct: both chains cut from one SI precursor
Sequence (P56729 with tags, fused parts or gaps): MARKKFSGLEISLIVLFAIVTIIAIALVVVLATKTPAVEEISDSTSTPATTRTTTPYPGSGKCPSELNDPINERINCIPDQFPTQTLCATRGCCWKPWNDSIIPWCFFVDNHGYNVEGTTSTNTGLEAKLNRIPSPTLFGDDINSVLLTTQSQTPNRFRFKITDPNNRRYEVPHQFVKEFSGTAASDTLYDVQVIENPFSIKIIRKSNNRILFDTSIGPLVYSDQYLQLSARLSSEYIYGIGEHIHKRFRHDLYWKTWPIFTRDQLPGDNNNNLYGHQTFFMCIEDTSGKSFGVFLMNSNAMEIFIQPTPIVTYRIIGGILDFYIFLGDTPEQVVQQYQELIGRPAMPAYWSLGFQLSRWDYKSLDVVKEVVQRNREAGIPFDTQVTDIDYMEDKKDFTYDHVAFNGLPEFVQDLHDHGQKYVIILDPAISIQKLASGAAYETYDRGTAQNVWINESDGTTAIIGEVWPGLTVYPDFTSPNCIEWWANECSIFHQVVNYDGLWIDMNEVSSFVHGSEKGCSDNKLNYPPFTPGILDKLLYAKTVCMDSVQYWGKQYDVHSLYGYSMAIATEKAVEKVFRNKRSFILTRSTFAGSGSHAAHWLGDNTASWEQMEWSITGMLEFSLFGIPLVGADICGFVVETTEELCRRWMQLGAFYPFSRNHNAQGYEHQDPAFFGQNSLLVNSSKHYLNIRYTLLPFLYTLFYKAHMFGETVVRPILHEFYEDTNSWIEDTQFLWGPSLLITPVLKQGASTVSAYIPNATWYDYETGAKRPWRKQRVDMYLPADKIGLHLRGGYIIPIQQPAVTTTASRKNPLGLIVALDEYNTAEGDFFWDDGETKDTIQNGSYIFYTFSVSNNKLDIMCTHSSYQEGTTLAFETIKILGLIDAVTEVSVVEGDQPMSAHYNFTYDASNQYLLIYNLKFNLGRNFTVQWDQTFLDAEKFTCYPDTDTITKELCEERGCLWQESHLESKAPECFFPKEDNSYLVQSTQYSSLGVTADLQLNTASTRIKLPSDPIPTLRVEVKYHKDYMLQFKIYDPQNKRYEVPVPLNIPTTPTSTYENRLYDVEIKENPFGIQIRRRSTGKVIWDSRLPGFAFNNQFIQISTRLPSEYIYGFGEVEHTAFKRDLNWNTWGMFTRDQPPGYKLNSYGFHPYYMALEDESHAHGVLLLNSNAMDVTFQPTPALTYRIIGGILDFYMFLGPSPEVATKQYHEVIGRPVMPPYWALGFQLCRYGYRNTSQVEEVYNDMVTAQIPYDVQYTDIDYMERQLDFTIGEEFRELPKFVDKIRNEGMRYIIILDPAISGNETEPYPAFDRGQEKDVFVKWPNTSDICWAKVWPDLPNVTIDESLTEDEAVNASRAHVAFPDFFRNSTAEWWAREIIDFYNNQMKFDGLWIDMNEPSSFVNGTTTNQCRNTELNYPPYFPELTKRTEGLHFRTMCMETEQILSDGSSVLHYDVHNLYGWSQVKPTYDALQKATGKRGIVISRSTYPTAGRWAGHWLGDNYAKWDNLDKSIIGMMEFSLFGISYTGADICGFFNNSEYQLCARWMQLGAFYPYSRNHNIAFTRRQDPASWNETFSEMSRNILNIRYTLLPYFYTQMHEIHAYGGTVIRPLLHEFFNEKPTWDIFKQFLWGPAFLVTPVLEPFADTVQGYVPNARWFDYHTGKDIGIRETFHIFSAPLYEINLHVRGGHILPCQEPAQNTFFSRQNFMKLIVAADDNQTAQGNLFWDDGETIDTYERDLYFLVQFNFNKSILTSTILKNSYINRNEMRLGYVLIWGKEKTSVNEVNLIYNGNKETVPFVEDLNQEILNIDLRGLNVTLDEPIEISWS
Test: Inhibition constants against porcine intestinal sucrase
Type: biochemical
Conditions: pig small intestine; 30 mM sucrose, pH 6.0, 37° C., 30 min; Lineweaver-Burk plots; read-out: Ki Intestinal Sucrase
Give the value, in units of µM, as a plain number.

INPUT: Field: Ki (Porcine Intestinal Sucrase (Sus scrofa, UniProt P56729)). Entry: "O[C@H]1[C@H](O)[C@@H](O)CN2CC[C@H](O)[C@H]12"
OUTPUT: 0.064

INPUT: Note, next up: CCCCN1C[C@H](O)[C@@H](O)[C@H](O)[C@H]1COP(=O)(O)O [N-BuDNJ-6-P, N-butyldeoxynojirimycin-6-phosphate]
OUTPUT: 1500

INPUT: Note, next up: O=P(O)(O)OC[C@H]1NC[C@H](O)[C@@H](O)[C@@H]1O [DNJ-6-P, deoxynojirimycin-6-phosphate]
OUTPUT: 520

----------
Target: Porcine Intestinal Sucrase (Sus scrofa)
Construct: both chains cut from one SI precursor
Experiment: Inhibition constants against porcine intestinal sucrase
Type: biochemical
Description: Porcine Intestinal Sucrase and Maltase. A sucrase-isomaltase complex was extracted from pig small intestine by treatment with urea and then solubilized by digestion with papain. […] After 30 min. the enzyme was inactivated by heating at 100° C. for 3 min, the reaction mixture centrifuged at 15000×g for 15 min and a 50 µl aliquot of the supernatant removed and the enzymereleased glucose determined by the glucose oxidase-peroxidase method described by Trinder, Ann. […]
Measurement kind: pKi
Schema: pKi number; meaning minus log10 of the concentration expressed in molar units.

INPUT: Recorded pKi of "CCCCN1C[C@H](O)[C@@H](O)[C@H](O)[C@H]1CO" , please.
OUTPUT: 6.74

INPUT: Note, next up: "OC[C@H]1NC[C@H](O)[C@@H](O)[C@@H]1O"
OUTPUT: 7.30

----------
Molecular target: Porcine Microsomal Alpha-Glucosidase I (Sus scrofa)
Construct: Alpha-glucosidase I was isolated from porcine liver microsomes; from tissue; host or cells: porcine liver microsomes
Sequence (K7N7E7 1-839): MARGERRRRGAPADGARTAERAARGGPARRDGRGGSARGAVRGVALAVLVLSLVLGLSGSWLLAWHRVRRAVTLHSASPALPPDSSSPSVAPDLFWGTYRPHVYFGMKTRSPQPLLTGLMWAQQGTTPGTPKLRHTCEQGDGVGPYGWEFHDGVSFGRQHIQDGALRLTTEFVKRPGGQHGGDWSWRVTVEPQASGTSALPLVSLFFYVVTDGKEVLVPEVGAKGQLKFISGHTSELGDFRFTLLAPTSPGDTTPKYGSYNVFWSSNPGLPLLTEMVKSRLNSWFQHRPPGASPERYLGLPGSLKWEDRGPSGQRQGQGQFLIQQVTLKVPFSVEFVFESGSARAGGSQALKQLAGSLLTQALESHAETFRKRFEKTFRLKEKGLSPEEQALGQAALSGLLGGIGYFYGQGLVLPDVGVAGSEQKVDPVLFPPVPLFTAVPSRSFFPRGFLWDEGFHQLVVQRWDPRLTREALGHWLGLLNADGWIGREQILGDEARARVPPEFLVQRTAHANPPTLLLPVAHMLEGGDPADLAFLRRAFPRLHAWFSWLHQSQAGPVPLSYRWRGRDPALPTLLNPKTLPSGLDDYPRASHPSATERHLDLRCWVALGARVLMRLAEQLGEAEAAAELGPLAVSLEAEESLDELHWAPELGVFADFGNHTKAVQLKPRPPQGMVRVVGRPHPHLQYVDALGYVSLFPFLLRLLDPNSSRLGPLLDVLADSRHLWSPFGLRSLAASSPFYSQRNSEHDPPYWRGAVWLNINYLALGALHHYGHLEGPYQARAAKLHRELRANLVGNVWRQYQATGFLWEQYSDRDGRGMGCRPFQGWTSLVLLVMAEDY
Experiment: Inhibition constants against porcine microsomal alpha-glucosidase I
Type: biochemical
Settings: porcine liver microsomes; substrate [14C-Glc]Glc3Man9GlcNAc2 0.044 μM, pH 7.0, 37° C.; competitive inhibition assumed; read-out: Ki Microsomal α-Glucosidase I
From the text: Porcine Microsomal Alpha-Glucosidase I. Alpha-glucosidase I was isolated from porcine liver microsomes by an affinity chromatographic method similar to that described by Hettkamp et.al., Eur J. Biochem. 142, 85-90 (1981). […]
Measurement kind: pKi
Schema: pKi number; meaning minus log10 of the concentration expressed in molar units.

INPUT: Field: pKi (Porcine Microsomal Alpha-Glucosidase I (Sus scrofa)). Entry: O=P(O)(O)OC[C@H]1NC[C@H](O)[C@@H](O)[C@@H]1O [DNJ-6-P, deoxynojirimycin-6-phosphate]
OUTPUT: 2.18

INPUT: Note, next up: O[C@H]1[C@H](O)[C@@H](O)CN2CC[C@H](O)[C@H]12 [Castanospermine, castanospermine]
OUTPUT: 7.40

INPUT: Note, next up: CCCCN1C[C@H](O)[C@@H](O)[C@H](O)[C@H]1COP(=O)(O)O [N-BuDNJ-6-P, N-butyldeoxynojirimycin-6-phosphate]
OUTPUT: 2.40
